Assay: Phase 1 Part 1, single ascending oral dose pharmacokinetics and food effect
Format: in vivo, human
Conditions: human, plasma, po, 1000 mg, 1000 mg single oral dose, fasting; GM

# molecule, Cmax
data = [
    ("C=Cc1cc(C(=O)Nc2ccc(C(=N)N)cc2)c(-c2ccc(C(=O)NCC3CC3)nc2C(=O)O)cc1OC [Example 1]", "0.193 µg/mL"),
]

====

Experiment: Phase 1 Part 1, single ascending oral dose pharmacokinetics and food effect
Assay type: in vivo, human
Conditions: human, plasma, po, 500 mg, 500 mg single oral dose, FASTED; GM

# compound, AUC(0-inf)
measured = [
    ("C=Cc1cc(C(=O)Nc2ccc(C(=N)N)cc2)c(-c2ccc(C(=O)NCC3CC3)nc2C(=O)O)cc1OC [Example 1]", "802 ng·h/mL"),
]

All values here come from patent US10905683B2.
